Quick reference: IC50 of the listed items.
Tested on: H1N1 (influenza A/New Caledonia/20/99)
Assay: microbe, parasite or virus in culture
Format: cell-based
Conditions: Influenza A virus, H1N1, A549, 48 h
Provide the measurement as a number trailed by its unit.

O=C(Nc1cnc(Cl)cn1)c1c(NC(=O)C2CCCCC2C(=O)O)sc2c1CCC2 (centres unmarked); 19.3 µM
O=C(Nc1ccc(Cl)cc1)c1c(NC(=O)C2COCCN2)sc2c1CCC2 (centres unmarked); 24.2 µM

(Q) # return recorded IC50 for input CC(=O)c1cccc(NC(=O)c2c(NC(=O)C3CCCCC3C(=O)O)sc3c2CCC3)c1 (centres unmarked)
(A) 21.2 µM

* * *

Test system: H1N1 (influenza A/New Caledonia/20/99)
Assay: microbe, parasite or virus in culture
Type: cell-based
Details: Influenza A virus, H1N1, A549, 48 h
The entries below are paired with their reported IC50.
Give the quantity in µM, number only.

Solved entries (count: 6):
CC1CCC(NC(=O)c2c(NC(=O)C3CCCCC3C(=O)O)sc3c2CCC3)CC1 (stereo not shown); 12.4
O=C(Nc1ccc(Cl)cc1)c1c(NC(=O)N2CCCCC2C(=O)O)sc2c1CCC2 (stereo not shown); 8.8
O=C(Nc1ccc(Cl)cc1)c1c(NC(=O)C2COC2)sc2c1CCC2; 12.9
Cc1cccc(NC(=O)c2c(NC(=O)C3CC=CCC3C(=O)O)sc3c2CCCC3)c1 (stereo not shown); 11.7
NC(=O)N1CCCC(C(=O)Nc2sc3c(c2C(=O)Nc2ccc(Cl)cc2)CCC3)C1 (stereo not shown); 11.4
O=C(Nc1ccc(F)c(F)c1)c1c(NC(=O)C2CCCCC2C(=O)O)sc2c1CCC2 (stereo not shown); 10.4

Shifting focus to the compound that follows.
(Q) Answer with the recorded IC50 of O=C1CCCC(C(=O)Nc2sc3c(c2C(=O)Nc2ccc(Cl)cc2)CCC3)C1 (stereo not shown) only.
(A) 12.8

* * *

IC50 values, listed per item
Tested on: H1N1 (influenza A/New Caledonia/20/99)
Test: microbe, parasite or virus in culture
Format: cell-based
Conditions: Influenza A virus, H1N1, A549, 48 h
Field format: number, assumed µM, no unit text.

O=C(Nc1ccc(Cl)cc1)c1ccsc1NC(=O)C1C2CCC(CC2)C1C(=O)O (stereo not drawn) [Compound 71]; 12.2
Cc1ccc(NC(=O)c2c(NC(=O)C3CCCCC3C(=O)O)sc3c2CCC3)cc1 (stereo not drawn) [Compound 66]; 11.7

(Q) Determine from records and report IC50 for O=C(NCC1CCCCC1)c1c(NC(=O)C2CCCCC2C(=O)O)sc2c1CCC2 (stereo not drawn) [Compound 24]
(A) 12.3

* * *

Tested on: H1N1 (influenza A/New Caledonia/20/99)
Test: microbe, parasite or virus in culture
Format: cell-based
Settings: Influenza A virus, H1N1, A549, 48 h
measuredMetric: IC50 (µM)
Please respond with the number in µM and leave the unit unwritten.

O=C(NC1CCc2ccccc21)c1c(NC(=O)C2CCCCC2C(=O)O)sc2c1CCC2 (centres unmarked); 6.28
O=C(Nc1cccc(C(F)(F)F)c1)c1c(NC(=O)C2CCCCC2C(=O)O)sc2c1CCC2 (centres unmarked); 6.78
NC(=O)N1CCOCC1C(=O)Nc1sc2c(c1C(=O)Nc1ccc(Cl)cc1)CCC2 (centres unmarked); 4.4
O=C(Nc1ccc(Cl)cc1)c1c(NC(=O)C2CCN2)sc2c1CCC2 (centres unmarked); 14.1

Next:
(Q) Using known records, supply IC50 for Cc1cncc(NC(=O)c2c(NC(=O)C3CCCCC3C(=O)O)sc3c2CCC3)c1 (centres unmarked)
(A) 27.4
